Values were extracted from PubChem BioAssay AID2060508.

- System: 454973-116-R2-J3-PDC spheroids, viability, % test/control
- Test: Anticancer human tumor 454973-116-R2-J3-PDC patient-derived pancreatic carcinoma cell line growth inhibition [GQUAD]
- Conditions Used: second compound 0.1 µM; first compound 0.1 µM; stronger effect = lower value; spheroids with HUVEC and MSC
This listing pairs compounds with measured viability, T/C.
The reply should be a number in %, with the unit left off.

[[record]]
compound = "O=C(NO)c1cnc(N2CCN(S(=O)(=O)c3ccc4ccccc4c3)CC2)nc1 + Cc1[nH]c2ccc(F)cc2c1-c1nc2c3cccnc3c3ncccc3c2[nH]1"
study_target = "454973-116-R2-J3-PDC spheroids, viability, % test/control"
attribute_measured = "viability, T/C"
readout_number = 104

[[record]]
compound = "CC(=O)O[C@H]1C(=O)[C@@]2(C)[C@H]([C@H](OC(=O)c3ccccc3)[C@]3(O)C[C@H](OC(=O)[C@H](O)[C@@H](NC(=O)c4ccccc4)c4ccccc4)C(C)=C1C3(C)C)[C@]1(OC(C)=O)CO[C@@H]1C[C@@H]2O + Cc1cnc(CNC(=O)c2c(=O)c3ccc(N4CCCN(C)CC4)nc3n3c2sc2ccccc23)cn1"
study_target = "454973-116-R2-J3-PDC spheroids, viability, % test/control"
attribute_measured = "viability, T/C"
readout_number = 16.3

[[record]]
compound = "CCCS(=O)(=O)Nc1ccc(F)c(C(=O)c2c[nH]c3ncc(-c4ccc(Cl)cc4)cc23)c1F + Cc1[nH]c2ccc(F)cc2c1-c1nc2c3cccnc3c3ncccc3c2[nH]1"
study_target = "454973-116-R2-J3-PDC spheroids, viability, % test/control"
attribute_measured = "viability, T/C"
readout_number = 118

[[record]]
compound = "COc1ccc([C@@H](O)c2cc(-c3ncnc4cc(N5CCOCC5)ccc34)c(F)cc2Cl)nn1 + Cc1[nH]c2ccc(F)cc2c1-c1nc2c3cccnc3c3ncccc3c2[nH]1"
study_target = "454973-116-R2-J3-PDC spheroids, viability, % test/control"
attribute_measured = "viability, T/C"
readout_number = 104

[[record]]
compound = "CC1COCCN1c1cc(C2(O)CC3CCC(C2)O3)c2cnn(-c3ccn[nH]3)c2n1 (stereo unspecified) + CN(C)c1ccc(Nc2c3ccc(NC(=O)CCN4CCCC4)cc3nc3cc(NC(=O)CCN4CCCC4)ccc23)cc1"
study_target = "454973-116-R2-J3-PDC spheroids, viability, % test/control"
attribute_measured = "viability, T/C"
readout_number = 66.8


Attention now shifts to the item below.
Memo: CC1COCCN1c1cc(C2(O)CC3CCC(C2)O3)c2cnn(-c3ccn[nH]3)c2n1 (stereo unspecified) + Cc1[nH]c2ccc(F)cc2c1-c1nc2c3cccnc3c3ncccc3c2[nH]1 , reported viability, T/C: 58.9

###

- System: 454973-116-R2-J3-PDC spheroids, viability, % test/control
- Test: Anticancer human tumor 454973-116-R2-J3-PDC cell line growth inhibition [GQUAD];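 also: spheroids exposed to compounds for seven days; 100% = DMSO vehicle control viability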
- Conditions Used: second compound 10 µM; first compound 0.316 µM; stronger effect = lower value; spheroids with HUVEC and MSC
# viability, T/C per entry

Some entries whose results are on file:
[[record]]
compound = "CC1COCCN1c1cc(C2(S(C)(=N)=O)CC2)nc(-c2ccnc3[nH]ccc23)n1 (stereo unspecified) + CN(C)c1ccc(Nc2c3ccc(NC(=O)CCN4CCCC4)cc3nc3cc(NC(=O)CCN4CCCC4)ccc23)cc1"
attribute_measured = "viability, T/C"
result = "83.7%"

[[record]]
compound = "Cn1ncnc1[C@H]1c2n[nH]c(=O)c3cc(F)cc(c23)N[C@@H]1c1ccc(F)cc1 + CN(C)c1ccc(Nc2c3ccc(NC(=O)CCN4CCCC4)cc3nc3cc(NC(=O)CCN4CCCC4)ccc23)cc1"
attribute_measured = "viability, T/C"
result = "58.9%"

[[record]]
compound = "Cc1cccc(N(C)C(=O)C2C(O)CCN2c2nc(C)cc(C(F)(F)F)c2C#N)c1 (stereo unspecified) + CN(C)c1ccc(Nc2c3ccc(NC(=O)CCN4CCCC4)cc3nc3cc(NC(=O)CCN4CCCC4)ccc23)cc1"
attribute_measured = "viability, T/C"
result = "60.5%"

[[record]]
compound = "CC(C)(O)C1CCC(Nc2ccc3ncc(-c4cccc(C(F)(F)F)c4)n3n2)CC1 (stereo unspecified) + Cc1cnc(CNC(=O)c2c(=O)c3ccc(N4CCCN(C)CC4)nc3n3c2sc2ccccc23)cn1"
attribute_measured = "viability, T/C"
result = "49%"

[[record]]
compound = "CC1COCCN1c1cc(-c2ccnn2C)c2ccnc(-c3ccn[nH]3)c2n1 (stereo unspecified) + Cc1[nH]c2ccc(F)cc2c1-c1nc2c3cccnc3c3ncccc3c2[nH]1"
attribute_measured = "viability, T/C"
result = "29.8%"


So, O=C(c1cc(Cc2n[nH]c(=O)c3ccccc23)ccc1F)N1CCN(C(=O)C2CC2)CC1 + Cc1cnc(CNC(=O)c2c(=O)c3ccc(N4CCCN(C)CC4)nc3n3c2sc2ccccc23)cn1 ? Its viability, T/C was 15.1%

Note to self: viability, T/C recorded for COc1cccc2c1C(=O)c1c(O)c3c(c(O)c1C2=O)CC(O)(C(=O)CO)CC3OC1CC(N)C(O)C(C)O1 (stereo unspecified) + CN(C)c1ccc(Nc2c3ccc(NC(=O)CCN4CCCC4)cc3nc3cc(NC(=O)CCN4CCCC4)ccc23)cc1 was 44.1%

Memo: COc1ncnc(C2CC2)c1-c1ncc2cnn(Cc3ccc(-c4nc(C(F)(F)F)cn4C(C)C)cc3)c2n1 + Cc1cnc(CNC(=O)c2c(=O)c3ccc(N4CCCN(C)CC4)nc3n3c2sc2ccccc23)cn1 , reported viability, T/C: 50.4%

Record CC(C)(O)C1CCC(Nc2ccc3ncc(-c4cccc(C(F)(F)F)c4)n3n2)CC1 (stereo unspecified) + Cc1[nH]c2ccc(F)cc2c1-c1nc2c3cccnc3c3ncccc3c2[nH]1 . Reported viability, T/C: 89%

For O=c1[nH]cc(F)c(=O)[nH]1 + CN(C)c1ccc(Nc2c3ccc(NC(=O)CCN4CCCC4)cc3nc3cc(NC(=O)CCN4CCCC4)ccc23)cc1 the compound record lists viability, T/C as 78%

Recorded result, CC(C)(O)C1CCC(Nc2ccc3ncc(-c4cccc(C(F)(F)F)c4)n3n2)CC1 (stereo unspecified) + CN(C)c1ccc(Nc2c3ccc(NC(=O)CCN4CCCC4)cc3nc3cc(NC(=O)CCN4CCCC4)ccc23)cc1 , viability, T/C: 55%

###

- Tested on: 454973-116-R2-J3-PDC spheroids, viability, % test/control
- Test: Anticancer human tumor 454973-116-R2-J3-PDC cell line growth inhibition [GQUAD];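 also: spheroids exposed to compounds for seven days; 100% = DMSO vehicle control viability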
- Conditions Used: second compound 10 µM; first compound 0.0316 µM; stronger effect = lower value; spheroids with HUVEC and MSC
Attribute Measured: viability, T/C (%)
All answers are understood in %, so give the number only.

These solved cases illustrate the format of a correct answer.
[[record]]
compound = "CCc1c2c(nc3ccc(O)cc13)-c1cc3c(c(=O)n1C2)COC(=O)[C@]3(O)CC + Cc1[nH]c2ccc(F)cc2c1-c1nc2c3cccnc3c3ncccc3c2[nH]1"
study_target = "454973-116-R2-J3-PDC spheroids, viability, % test/control"
attribute_measured = "viability, T/C"
readout_number = 14.2

[[record]]
compound = "C=CC(=O)N1CCN(c2nc(=O)n(-c3c(C)ccnc3C(C)C)c3nc(-c4c(O)cccc4F)c(F)cc23)C(C)C1 (stereo not given) + Cc1cnc(CNC(=O)c2c(=O)c3ccc(N4CCCN(C)CC4)nc3n3c2sc2ccccc23)cn1"
study_target = "454973-116-R2-J3-PDC spheroids, viability, % test/control"
attribute_measured = "viability, T/C"
readout_number = 0.33

[[record]]
compound = "CC[C@@]1(O)C(=O)OCc2c1cc1n(c2=O)Cc2cc3c(CN(C)C)c(O)ccc3nc2-1 + Cc1cnc(CNC(=O)c2c(=O)c3ccc(N4CCCN(C)CC4)nc3n3c2sc2ccccc23)cn1"
study_target = "454973-116-R2-J3-PDC spheroids, viability, % test/control"
attribute_measured = "viability, T/C"
readout_number = 45.9

[[record]]
compound = "CCc1c2c(nc3ccc(O)cc13)-c1cc3c(c(=O)n1C2)COC(=O)[C@]3(O)CC + Cc1cnc(CNC(=O)c2c(=O)c3ccc(N4CCCN(C)CC4)nc3n3c2sc2ccccc23)cn1"
study_target = "454973-116-R2-J3-PDC spheroids, viability, % test/control"
attribute_measured = "viability, T/C"
readout_number = 0.26


The measured viability, T/C associated with CC1COCCN1c1cc(-c2ccnn2C)c2ccnc(-c3ccn[nH]3)c2n1 (stereo not given) + Cc1cnc(CNC(=O)c2c(=O)c3ccc(N4CCCN(C)CC4)nc3n3c2sc2ccccc23)cn1 reads 0.13

Entry O=c1[nH]cc(F)c(=O)[nH]1 + Cc1[nH]c2ccc(F)cc2c1-c1nc2c3cccnc3c3ncccc3c2[nH]1 ; viability, T/C = 93.5

Lookup result for CC[C@@]1(O)C(=O)OCc2c1cc1n(c2=O)Cc2cc3c(CN(C)C)c(O)ccc3nc2-1 + Cc1[nH]c2ccc(F)cc2c1-c1nc2c3cccnc3c3ncccc3c2[nH]1 ; measured viability, T/C: 56.7

Recorded result, CC(=O)O[C@H]1C(=O)[C@@]2(C)[C@H]([C@H](OC(=O)c3ccccc3)[C@]3(O)C[C@H](OC(=O)[C@H](O)[C@@H](NC(=O)c4ccccc4)c4ccccc4)C(C)=C1C3(C)C)[C@]1(OC(C)=O)CO[C@@H]1C[C@@H]2O + Cc1[nH]c2ccc(F)cc2c1-c1nc2c3cccnc3c3ncccc3c2[nH]1 , viability, T/C: 12.5

Entry C=CCn1c(=O)c2cnc(Nc3ccc(N4CCN(C)CC4)cc3)nc2n1-c1cccc(C(C)(C)O)n1 + CN(C)c1ccc(Nc2c3ccc(NC(=O)CCN4CCCC4)cc3nc3cc(NC(=O)CCN4CCCC4)ccc23)cc1 , viability, T/C reported as 71.4

get_value(item= C#Cc1c(F)ccc2cc(O)cc(-c3ncc4c(N5CC6CCC(C5)N6)nc(OCC56CCCN5CC(F)C6)nc4c3F)c12 (stereo not given) + Cc1[nH]c2ccc(F)cc2c1-c1nc2c3cccnc3c3ncccc3c2[nH]1 , readout=viability, T/C) returns 48.1
